Test system: 5-hydroxytryptamine receptor 2A (Homo sapiens, UniProt P28223)
Sequence (P28223 whole entry): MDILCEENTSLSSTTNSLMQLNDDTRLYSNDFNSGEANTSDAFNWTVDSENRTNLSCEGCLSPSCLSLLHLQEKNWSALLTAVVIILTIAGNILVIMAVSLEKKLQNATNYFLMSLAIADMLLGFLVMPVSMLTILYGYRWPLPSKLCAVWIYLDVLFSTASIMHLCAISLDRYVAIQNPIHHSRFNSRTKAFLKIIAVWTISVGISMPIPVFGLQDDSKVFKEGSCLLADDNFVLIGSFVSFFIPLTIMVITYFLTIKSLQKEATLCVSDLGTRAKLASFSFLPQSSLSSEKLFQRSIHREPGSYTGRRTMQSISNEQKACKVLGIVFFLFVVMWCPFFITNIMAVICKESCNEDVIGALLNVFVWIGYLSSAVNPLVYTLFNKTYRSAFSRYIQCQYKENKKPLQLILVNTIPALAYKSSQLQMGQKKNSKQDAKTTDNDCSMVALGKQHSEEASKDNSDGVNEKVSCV
Each entry below lists one item and its recorded Ki value.
Answer with a number only, understood to be in nM.

Compound	Unit of measure	Ki
COc1cc2c(cc1OC)C(=O)CC(CN1CCN(c3ccccc3OC)CC1)C2 (racemic)	nM	2340
COc1ccc2c(c1)CC(CN1CCC(C(=O)c3ccc(F)cc3)CC1)CC2=O (single isomer, unassigned; (+))	nM	11.2

// switching to the query compound
The compound COc1ccc2c(c1)CC(CN1CCN(c3ccccc3OC)CC1)CC2=O (racemic) on 5-hydroxytryptamine receptor 2A (Homo sapiens, UniProt P28223): Ki was 891

* * *

Reported pKi by item:
Test system: 5-hydroxytryptamine receptor 2C (Homo sapiens, UniProt P28335)
Sequence (P28335 whole entry): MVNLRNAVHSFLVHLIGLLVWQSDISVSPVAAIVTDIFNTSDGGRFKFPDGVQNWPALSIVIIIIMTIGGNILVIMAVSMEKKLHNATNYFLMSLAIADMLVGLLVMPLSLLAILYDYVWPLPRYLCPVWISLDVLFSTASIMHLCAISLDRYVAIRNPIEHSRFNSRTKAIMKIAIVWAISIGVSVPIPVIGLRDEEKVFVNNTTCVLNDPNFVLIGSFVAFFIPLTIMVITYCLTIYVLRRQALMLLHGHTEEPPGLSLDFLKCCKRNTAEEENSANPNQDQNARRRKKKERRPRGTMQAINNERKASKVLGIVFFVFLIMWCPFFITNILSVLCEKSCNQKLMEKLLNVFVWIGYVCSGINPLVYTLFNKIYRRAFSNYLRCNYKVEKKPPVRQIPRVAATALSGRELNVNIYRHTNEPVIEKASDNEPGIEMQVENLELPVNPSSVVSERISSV
Reminder that pKi is minus the log10 of a molar concentration.

Data point: O=C1CC(CN2CCC(C(=O)c3ccc(F)cc3)CC2)Cc2ccccc21 (stereo in doubt; (+)-7c) ; pKi = 6.31

Sample O=C1CC(CN2CCC(c3noc4cc(F)ccc34)CC2)Cc2ccccc21 (stereo in doubt; (-)-7d) ; pKi observed: 6.08

According to the records, this molecule O=C1CC(CN2CCC(c3noc4cc(F)ccc34)CC2)Cc2ccccc21 (stereo in doubt; (+)-7d) displays pKi of 6.18

Reported pKi ( COc1cc2c(cc1OC)C(=O)CC(CN1CCC(C(=O)c3ccc(F)cc3)CC1)C2 (single isomer, unassigned; (-)) ) = 6.78

So, COc1cc2c(cc1OC)C(=O)CC(CN1CCC(C(=O)c3ccc(F)cc3)CC1)C2 (single isomer, unassigned; (+)) ? Its pKi was 6.24

pKi for COc1ccc2c(c1)CC(CN1CCC(c3noc4cc(F)ccc34)CC1)CC2=O (single isomer, unassigned; (-)) is 6.08

Quick note, pKi for O=C1CC(CN2CCC(C(=O)c3ccc(F)cc3)CC2)Cc2ccccc21 (racemic) landed at 6.30

* * *

This section lists log10 of Ki readings for UniProtKB P28223.
Plainly stated, the numbers are log10 of Ki given in nM.

Reported UniProtKB P28223 log10 of Ki for item O=C1CC(CN2CCC(c3noc4cc(F)ccc34)CC2)Cc2ccccc21 (racemic) was 0.43

Measured on UniProtKB P28223, COc1cc2c(cc1OC)C(=O)CC(CN1CCC(C(=O)c3ccc(F)cc3)CC1)C2 (single isomer, unassigned; (+)) has a documented log10 of Ki of 1.64

The molecule O=C1CC(CN2CCC(C(=O)c3ccc(F)cc3)CC2)Cc2ccccc21 (stereo in doubt; (-)-7c) , tested on UniProtKB P28223, showed log10 of Ki of 0.77

// log10 of Ki (UniProtKB P28223) for COc1ccccc1N1CCN(CC2CC(=O)c3ccccc3C2)CC1 (racemic) = 2.71

Kindly note: UniProtKB P28223, O=C1CC(CN2CCN(c3ccccn3)CC2)Cc2ccccc21 (racemic) , log10 of Ki value reported: 2.99

Param item: COc1ccc2c(c1)CC(CN1CCC(c3noc4cc(F)ccc34)CC1)CC2=O (single isomer, unassigned; (-)) ; param system: UniProtKB P28223; output log10 of Ki: 1.42

# lookup: COc1ccc2c(c1)CC(CN1CCC(C(=O)c3ccc(F)cc3)CC1)CC2=O (single isomer, unassigned; (-)) on UniProtKB P28223, log10 of Ki = 1.21

Record COc1cc2c(cc1OC)C(=O)CC(CN1CCC(c3noc4cc(F)ccc34)CC1)C2 (racemic) ; system UniProtKB P28223; log10 of Ki = 0.98
